Tested on: Mus musculus
ASSAY_OVERVIEW: Neurotoxicity in NMRI mouse assessed as impairment of motor coordination at 100 mg/kg after 30 mins by rotarod test
Assay type: toxicity, organism-based
Design: dose 100 mg/kg
APPLIED_CONDITIONS: in vivo, 0.5 h
MEASURED_PARAMETER: Activity

// field: Activity; key: Cc1ccc(-c2nnc(SCc3ccncc3)nc2-c2ccc(C)cc2)cc1 ; value = Non-toxic

// field: Activity; key: CSc1nnc(-c2ccc(F)cc2)c(-c2ccc(F)cc2)n1 ; value = Non-toxic

// field: Activity; key: CSc1nnc(-c2ccc(C)cc2)c(-c2ccc(C)cc2)n1 ; value = Non-toxic

// field: Activity; key: Sc1nnc(-c2cccs2)c(-c2cccs2)n1 ; value = Non-toxic
